tgt: UniProt P08235
test.method.notes: Antagonist activity at human mineralocorticoid receptor expressed in african green monkey CV1 cells assessed as inhibition of aldosterone-induced effect
quantity.measured: IC50

Query: Param item = `CCn1ncc2c(Cl)c(C(=O)NCc3ccc(C)cc3C)cnc21` ; retrieve measured IC50.
Response: > 20 µM

Query: Param item = `COc1cccc(-c2ccccc2CNC(=O)c2cnc3c(c(C)nn3C)c2Cl)c1` ; retrieve measured IC50.
Response: > 10 µM

Query: Param item = `Cc1noc(C)c1-c1ccc(CNC(=O)c2cnc3c(c(C)nn3C)c2Cl)cc1` ; retrieve measured IC50.
Response: > 20 µM

Query: Param item = `CCc1nn(C)c2ncc(C(=O)NCC3Cc4ccccc4C3)c(Cl)c12` ; retrieve measured IC50.
Response: > 10 µM

----------
tgt: Glucocorticoid receptor (Homo sapiens, UniProt P04150)
test.method.notes: Antagonist activity at glucocorticoid receptor expressed in human A549 cells assessed as renilla luciferase transactivation activity
pEC50: −log10 of the molar value.
quantity.measured: pEC50

Query: Param item = `COc1cccc(-c2ccccc2CNC(=O)c2cnc3c(c(C)nn3C)c2Cl)c1` ; retrieve measured pEC50.
Response: < 5.20

Query: Param item = `CCc1nn(C)c2ncc(C(=O)NCC3Cc4ccccc4C3)c(Cl)c12` ; retrieve measured pEC50.
Response: < 5.20

Query: Param item = `CCn1ncc2c(Cl)c(C(=O)NCc3ccc(C)cc3C)cnc21` ; retrieve measured pEC50.
Response: < 5.20

----------
tgt: Progesterone receptor (Homo sapiens, UniProt P06401)
Sequence (P06401 whole entry): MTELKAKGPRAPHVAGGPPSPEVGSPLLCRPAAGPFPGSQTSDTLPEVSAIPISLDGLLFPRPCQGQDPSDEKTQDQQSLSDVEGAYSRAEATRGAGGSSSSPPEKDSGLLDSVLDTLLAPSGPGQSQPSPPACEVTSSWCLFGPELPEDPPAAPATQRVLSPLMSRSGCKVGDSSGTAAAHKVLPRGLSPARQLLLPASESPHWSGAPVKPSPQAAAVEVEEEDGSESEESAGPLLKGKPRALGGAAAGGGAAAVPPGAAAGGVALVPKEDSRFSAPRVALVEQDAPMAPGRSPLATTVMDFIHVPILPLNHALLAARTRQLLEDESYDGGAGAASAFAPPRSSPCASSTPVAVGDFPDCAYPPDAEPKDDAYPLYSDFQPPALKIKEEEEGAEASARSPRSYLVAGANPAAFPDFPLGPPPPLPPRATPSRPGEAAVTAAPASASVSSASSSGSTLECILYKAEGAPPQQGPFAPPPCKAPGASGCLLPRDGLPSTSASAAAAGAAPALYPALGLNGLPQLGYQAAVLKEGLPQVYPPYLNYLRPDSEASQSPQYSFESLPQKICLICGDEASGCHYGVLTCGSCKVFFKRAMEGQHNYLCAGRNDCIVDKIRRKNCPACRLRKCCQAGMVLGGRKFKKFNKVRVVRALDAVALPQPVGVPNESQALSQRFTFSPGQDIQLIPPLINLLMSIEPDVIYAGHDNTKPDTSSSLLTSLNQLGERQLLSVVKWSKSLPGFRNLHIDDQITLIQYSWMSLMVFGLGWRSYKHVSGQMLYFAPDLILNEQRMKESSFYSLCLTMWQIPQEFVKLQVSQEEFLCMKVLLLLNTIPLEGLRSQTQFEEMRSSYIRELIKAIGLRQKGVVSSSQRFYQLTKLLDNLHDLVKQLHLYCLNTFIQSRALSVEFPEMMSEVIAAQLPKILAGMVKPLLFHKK
test.method.notes: Antagonist activity at human progesterone receptor B expressed in african green monkey CV1 cells assessed as inhibition of progesterone-induced effect
For each entry below, report its pIC50 value.
Scale: pIC50 equals -log10([C]), with [C] in mol/L.

Query: Param item = `Cc1noc(C)c1-c1ccc(CNC(=O)c2cnc3c(c(C)nn3C)c2Cl)cc1` ; retrieve measured pIC50.
Response: 5.50

Query: Param item = `CCn1ncc2c(Cl)c(C(=O)NCc3ccc(C)cc3C)cnc21` ; retrieve measured pIC50.
Response: 5.90

----------
tgt: Progesterone receptor (Homo sapiens, UniProt P06401)
test.method.notes: Antagonist activity at human progesterone receptor B expressed in african green monkey CV1 cells
quantity.measured: EC50

Query: Param item = `CCn1ncc2c(Cl)c(C(=O)NCc3ccc(C)cc3C)cnc21` ; retrieve measured EC50.
Response: > 10 µM

Query: Param item = `COc1cccc(-c2ccccc2CNC(=O)c2cnc3c(c(C)nn3C)c2Cl)c1` ; retrieve measured EC50.
Response: > 20 µM

Query: Param item = `CCc1nn(C)c2ncc(C(=O)NCC3Cc4ccccc4C3)c(Cl)c12` ; retrieve measured EC50.
Response: > 10 µM

Query: Param item = `Cc1noc(C)c1-c1ccc(CNC(=O)c2cnc3c(c(C)nn3C)c2Cl)cc1` ; retrieve measured EC50.
Response: > 10 µM

----------
For each entry below, report its pIC50 value.
tgt: UniProtKB P04150
test.method.notes: Antagonist activity at glucocorticoid receptor expressed in human A549 cells assessed as inhibition of cortisol-induced renilla luciferase transactivation activity
Scale: pIC50 equals -log10([C]), with [C] in mol/L.

Query: Param item = `CCCn1nc(C)c2c(Cl)c(C(=O)NCc3ccc(-c4c(C)noc4C)cc3)cnc21` ; retrieve measured pIC50.
Response: 6.60

Query: Param item = `Cn1ncc2c(Cl)c(C(=O)NCc3ccccc3)cnc21` ; retrieve measured pIC50.
Response: 6.00

Query: Param item = `Cc1cc(C)cc(CNC(=O)c2cnc3c(c(C)nn3C)c2Cl)c1` ; retrieve measured pIC50.
Response: 6.70

Query: Param item = `CCn1ncc2c(Cl)c(C(=O)NCc3ccc(Cl)c(C(F)(F)F)c3)cnc21` ; retrieve measured pIC50.
Response: 7.20

Query: Param item = `CCn1ncc2c(Cl)c(C(=O)NCc3ccc(C)cc3C)cnc21` ; retrieve measured pIC50.
Response: 6.70

Query: Param item = `CCn1ncc2c(Cl)c(C(=O)NCc3ccccc3C)cnc21` ; retrieve measured pIC50.
Response: 6.40

Query: Param item = `CCn1ncc2c(Cl)c(C(=O)NCc3ccc(Cl)cc3)cnc21` ; retrieve measured pIC50.
Response: 6.60

----------
tgt: Mineralocorticoid receptor (Homo sapiens)
Sequence (P08235 whole entry): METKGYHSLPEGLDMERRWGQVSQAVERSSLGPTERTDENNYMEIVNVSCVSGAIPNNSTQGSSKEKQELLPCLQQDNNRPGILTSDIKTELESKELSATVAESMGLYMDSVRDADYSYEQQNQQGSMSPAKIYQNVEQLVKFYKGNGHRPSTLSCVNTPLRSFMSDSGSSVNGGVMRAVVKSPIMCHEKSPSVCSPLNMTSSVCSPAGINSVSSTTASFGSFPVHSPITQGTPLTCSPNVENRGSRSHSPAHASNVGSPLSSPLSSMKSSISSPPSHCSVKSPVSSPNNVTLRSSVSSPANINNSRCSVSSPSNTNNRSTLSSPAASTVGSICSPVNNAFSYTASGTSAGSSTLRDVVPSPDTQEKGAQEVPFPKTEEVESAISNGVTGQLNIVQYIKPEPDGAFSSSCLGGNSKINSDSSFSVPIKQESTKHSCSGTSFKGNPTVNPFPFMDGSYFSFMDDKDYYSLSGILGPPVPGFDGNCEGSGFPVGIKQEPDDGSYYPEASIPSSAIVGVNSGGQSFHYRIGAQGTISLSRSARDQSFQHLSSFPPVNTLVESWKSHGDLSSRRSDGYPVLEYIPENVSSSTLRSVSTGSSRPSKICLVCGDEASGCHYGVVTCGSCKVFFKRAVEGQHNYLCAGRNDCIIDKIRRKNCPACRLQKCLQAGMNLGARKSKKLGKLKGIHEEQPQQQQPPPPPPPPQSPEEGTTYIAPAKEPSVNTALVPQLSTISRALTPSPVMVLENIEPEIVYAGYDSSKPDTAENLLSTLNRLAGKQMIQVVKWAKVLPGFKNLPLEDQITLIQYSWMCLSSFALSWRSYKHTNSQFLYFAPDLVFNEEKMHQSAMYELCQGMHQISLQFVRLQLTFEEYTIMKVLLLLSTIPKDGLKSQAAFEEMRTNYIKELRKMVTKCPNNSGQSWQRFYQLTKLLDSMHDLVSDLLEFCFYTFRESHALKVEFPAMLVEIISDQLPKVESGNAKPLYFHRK
test.method.notes: Antagonist activity at human mineralocorticoid receptor expressed in african green monkey CV1 cells
pEC50: −log10 of the molar value.
quantity.measured: pEC50

Query: Item: `Cc1noc(C)c1-c1ccc(CNC(=O)c2cnc3c(c(C)nn3C)c2Cl)cc1` Test system: Mineralocorticoid receptor (Homo sapiens) Read-out: pEC50 Value: ?
Response: < 4.70

Query: Item: `CCn1ncc2c(Cl)c(C(=O)NCc3ccc(C)cc3C)cnc21` Test system: Mineralocorticoid receptor (Homo sapiens) Read-out: pEC50 Value: ?
Response: < 5.00

Query: Item: `COc1cccc(-c2ccccc2CNC(=O)c2cnc3c(c(C)nn3C)c2Cl)c1` Test system: Mineralocorticoid receptor (Homo sapiens) Read-out: pEC50 Value: ?
Response: < 5.00

Query: Item: `CCc1nn(C)c2ncc(C(=O)NCC3Cc4ccccc4C3)c(Cl)c12` Test system: Mineralocorticoid receptor (Homo sapiens) Read-out: pEC50 Value: ?
Response: < 5.00

----------
tgt: UniProtKB P04150
Sequence (P04150 whole entry): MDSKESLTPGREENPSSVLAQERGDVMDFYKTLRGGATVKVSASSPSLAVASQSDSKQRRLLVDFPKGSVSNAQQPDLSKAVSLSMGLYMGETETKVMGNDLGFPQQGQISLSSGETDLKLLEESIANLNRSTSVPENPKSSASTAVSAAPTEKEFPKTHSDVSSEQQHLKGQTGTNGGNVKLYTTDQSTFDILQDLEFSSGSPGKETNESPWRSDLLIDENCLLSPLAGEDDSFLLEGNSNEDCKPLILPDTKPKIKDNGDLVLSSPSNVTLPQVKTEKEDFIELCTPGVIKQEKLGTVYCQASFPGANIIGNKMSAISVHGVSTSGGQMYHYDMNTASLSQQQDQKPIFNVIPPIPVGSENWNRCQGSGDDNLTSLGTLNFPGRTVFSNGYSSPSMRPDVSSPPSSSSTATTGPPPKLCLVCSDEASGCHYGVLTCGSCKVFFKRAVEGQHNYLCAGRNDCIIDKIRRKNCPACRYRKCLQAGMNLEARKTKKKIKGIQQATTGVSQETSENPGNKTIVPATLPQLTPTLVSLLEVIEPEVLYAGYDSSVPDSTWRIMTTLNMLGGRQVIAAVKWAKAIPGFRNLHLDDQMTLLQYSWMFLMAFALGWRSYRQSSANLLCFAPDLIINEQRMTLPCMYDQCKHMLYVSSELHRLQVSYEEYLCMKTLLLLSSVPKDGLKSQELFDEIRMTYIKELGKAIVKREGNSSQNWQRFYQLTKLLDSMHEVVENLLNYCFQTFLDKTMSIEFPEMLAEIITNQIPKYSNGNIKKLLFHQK
test.method.notes: Antagonist activity at glucocorticoid receptor expressed in human A549 cells assessed as inhibition of cortisol-induced renilla luciferase transactivation activity
quantity.measured: IC50

Query: Param item = `CCCNC(=O)c1cnc2c(cnn2CC)c1Cl` ; retrieve measured IC50.
Response: > 6.31 µM

Query: Param item = `CCn1ncc2c(Cl)c(C(=O)NCc3cncs3)cnc21` ; retrieve measured IC50.
Response: > 6.31 µM

Query: Param item = `Cc1ccc(-n2nc(C)c3c(Cl)c(C(=O)NCc4ccc(-c5c(C)noc5C)cc4)cnc32)cc1` ; retrieve measured IC50.
Response: > 6.31 µM
